STUDY_SYSTEM: T1, human Glucagon-like peptide 2 receptor (GLP-2R) (human, UniProt O95838 1-553)
T1 sequence (looked up): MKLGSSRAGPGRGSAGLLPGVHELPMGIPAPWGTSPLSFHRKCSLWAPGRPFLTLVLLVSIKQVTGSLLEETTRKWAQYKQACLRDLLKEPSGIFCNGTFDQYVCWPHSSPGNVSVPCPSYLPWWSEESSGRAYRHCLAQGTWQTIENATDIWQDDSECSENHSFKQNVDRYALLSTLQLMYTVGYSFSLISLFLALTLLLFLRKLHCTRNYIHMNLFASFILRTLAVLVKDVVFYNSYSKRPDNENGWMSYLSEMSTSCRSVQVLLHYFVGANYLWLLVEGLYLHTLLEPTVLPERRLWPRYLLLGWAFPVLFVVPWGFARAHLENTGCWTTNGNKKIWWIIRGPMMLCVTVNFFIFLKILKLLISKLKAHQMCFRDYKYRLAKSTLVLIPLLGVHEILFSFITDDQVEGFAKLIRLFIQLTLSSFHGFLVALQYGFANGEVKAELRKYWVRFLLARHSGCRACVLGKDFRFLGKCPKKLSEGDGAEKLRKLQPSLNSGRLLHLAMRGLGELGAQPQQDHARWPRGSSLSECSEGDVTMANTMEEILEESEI
EXPERIMENT_SUMMARY: cell-based or functional assay
Bridges are numbered along the chain shown (N, C = ends). Where no end group is shown, it is not given here. L1 = C4 bis(bromoacetamide) staple without lipid; L5 = C18 diacid-Lys-PEG2-ornithine staple; L2 = myristic acid-PEG-ornithine staple
MEASURED_PARAMETER: EC50, CRE-luciferase reporter in HEK293-GLP-2R-CRE cells

HGDGSFSDEMNTILDALAARCFINWLICTKITD (linker 21-28 via L1) [mTA 54: GLP-2 (E) and L1] :: 0.13 nM
HGDGSFSDEMCTILDNLCARDFINWLIQTKITDPSSGAPPPS (linker 11-18 via L5; also: staple L5 carries C18 diacid-Lys-PEG2-ornithine lipid) [mTA 70: GLP-2 (J) and L5] :: 8.8 nM
HGDGSFSDEMCTILDNLCARDFINWLIQTKITD (linker 11-18 via L5) [mTA 58: GLP-2 (G) and L5] :: 7.98 nM
HGDGSFSDEMNTILDNCAARDFICWLIQTKITD (linker 17-24 via L2) [mTA 47: GLP-2 (A) and L2] :: 0.041 nM

Then there is this binder:
Challenge: Using the record for HGDGSFSDCMNTILDCLAARDFINWLIQTKITD (linker 9-16 via L5) [mTA 56: GLP-2 (F) and L5] , report its EC50, CRE-luciferase reporter in HEK293-GLP-2R-CRE cells.
Response given: 0.77 nM
